Below, each of the compounds is paired with its reported melting point value.

Recorded results for 2 compounds are shown here.
O=C(/C=C(\O)c1nn[nH]n1)c1cn(Cc2ccccc2)c2c(Cl)cccc12 = 252 °C (dec.)
CCOC(=O)C(=CC(=O)c1cn(Cc2ccccc2)c2ccc(Cl)cc12)NC = 131 to 132 °C

// returns reported melting point for input O=C(/C=C(\O)c1nccs1)c1c[nH]c2ccc(Cl)cc12
226 to 227 °C

// returns reported melting point for input O=C(OC(c1ccccc1)c1ccccc1)C(O)=CC(=O)c1cn(C(=O)c2ccc(F)cc2)c2ccc(Cl)cc12
198 to 200 °C

// returns reported melting point for input O=C(/C=C(\O)c1nc[nH]n1)c1cn(Cc2ccccc2)c2ccc(Cl)cc12
264 to 265 °C

* * *

Let's go through some IC50 measurements on HIV-1 integrase (Human immunodeficiency virus type 1 group M subtype B, UniProt P04585) together.

O=C(C=C(O)c1nn[nH]n1)c1cn(S(=O)(=O)c2cccs2)c2ccc(Cl)cc12 = 7.57 µM
O=C(O)C(O)=CC(=O)c1cn(S(=O)(=O)c2ccccc2)c2ccc(Cl)cc12 = 0.32 µM
O=C(C=C(O)c1nc[nH]n1)c1c[nH]c2ccc(Cl)cc12 = 5.16 µM

Now look at this one.
HIV-1 integrase (Human immunodeficiency virus type 1 group M subtype B, UniProt P04585) / IC50 / O=C(C=C(O)c1nn[nH]n1)c1cn(Cc2ccccc2)c2ccc(Cl)cc12 : value?
9.48 µM

* * *

Observation type: melting point

O=C(/C=C(\O)c1nn[nH]n1)c1c(CCCc2ccc(F)cc2)[nH]c2ccc(Cl)cc12 = 181 to 182 °C (dec.)
COC(=O)/C(O)=C/C(=O)c1c(Cc2ccc(F)cc2)[nH]c2ccc(Cl)cc12 = 235 to 238 °C
O=C(/C=C(\O)c1nc[nH]n1)c1cn(S(=O)(=O)c2ccc(F)cc2)c2cc(Cl)ccc12 = 293 to 298 °C (dec.)
O=C(/C=C(\O)c1nn[nH]n1)c1c([S+]([O-])c2cc(Cl)cc(Cl)c2)[nH]c2ccc(Cl)cc12 (centres unmarked) = 200 to 204 °C (dec.)
O=C(C=C(O)c1nc[nH]n1)c1c[nH]c2ccc(Cl)cc12 [Example 71] = 277 to 279 °C

// returns reported melting point for input CCOCCNC(=CC(=O)c1cn(Cc2ccccc2)c2ccc(Cl)cc12)C(=O)O
184 to 186 °C (dec.)

// returns reported melting point for input COc1ccccc1Cc1[nH]c2ccc(Cl)cc2c1C(=O)/C=C(\O)c1nn[nH]n1
245 °C (dec.)

// returns reported melting point for input CCOCCNC(=CC(=O)c1cn(Cc2ccccc2)c2ccc(Cl)cc12)C(=O)OCC
73 to 74 °C

// returns reported melting point for input O=C(O)/C(O)=C/C(=O)c1cn(Cc2ccc(C(=O)O)cc2)c2ccc(Cl)cc12
245 °C (dec.)

// returns reported melting point for input O=C(/C=C(\O)c1nc[nH]n1)c1cn(Cc2ccc(F)cc2)c2cc(Cl)ccc12
260 to 263 °C

* * *

Below, each of the compounds is paired with its reported melting point value.

O=C(/C=C(\O)c1nc[nH]n1)c1cn(S(=O)(=O)c2ccc(F)cc2)c2ccc(Br)cc12 = 266 to 270 °C
O=C(/C=C(\O)c1ncc[nH]1)c1c[nH]c2ccc(Cl)cc12 = 272 to 276 °C
O=C(/C=C(\O)c1nc[nH]n1)c1cn(Cc2ccc(F)cc2)c2ccc(Br)cc12 = 265 to 268 °C

Now look at this one.
// returns reported melting point for input O=C(O)C(O)=CC(=O)c1cn(C(=O)c2ccc(F)cc2)c2ccc(Cl)cc12
213 to 218 °C
